Test system: MKL-2
experiment: qHTS assay to identify novel small-molecules to repurpose for Merkel cell carcinoma treatment (AID 1296009); note: nearly all actives have a fitted effect of over 60% in size
condition_summary: MCC and control cell lines, CellTiter-Glo viability, 72 h; series mostly up to 46 µM
Results filed as inconclusive are left out. Active and inactive are the calls of the source. Calls come from the whole dose curve; as a rule, active = well fitted inhibition curve with a large enough effect; inconclusive = small, poorly fitted or top-dose-only effect; inactive = flat fitted curve, though single readings scatter.
experimental_endpoint: activity change, negative = cytotoxicity

Solved entries (count: 5):
CCN(CC)S(=O)(=O)c1ccc(C(=O)O)cc1: inactive
CCN(CC)CC1CCCCN1CC(=O)N1c2ccccc2C(=O)Nc2cccnc21 (configuration not stated): inactive
O=C(Cn1ccnc1[N+](=O)[O-])NCc1ccccc1: inactive
O=C(O)Cc1cn(-c2ccccc2)nc1-c1ccc(Cl)cc1: inactive
Cc1[nH]c(C)c(Cl)c(=O)c1Cl: inactive

Problem: Look up activity change, negative = cytotoxicity: O=C(O)c1cc(=O)c2ccccc2o1
Solution: inactive

Problem: Look up activity change, negative = cytotoxicity: CCCCCOC(=O)Nc1nc(=O)n([C@@H]2O[C@H](C)[C@@H](O)[C@H]2O)cc1F
Solution: inactive

Problem: Look up activity change, negative = cytotoxicity: C/C=C1\[C@H]2C=C(C)C[C@]1(N)c1ccc(=O)[nH]c1C2
Solution: inactive

Problem: Look up activity change, negative = cytotoxicity: CC(=O)NS(=O)(=O)c1ccc(N)cc1
Solution: inactive

Problem: Look up activity change, negative = cytotoxicity: CCCCOC(=O)c1ccc(N)cc1
Solution: inactive

Problem: Look up activity change, negative = cytotoxicity: CN(C/C=C/C#CC(C)(C)C)Cc1cccc2ccccc12
Solution: inactive

Problem: Look up activity change, negative = cytotoxicity: CCCCC1(COC(=O)CCC(=O)O)C(=O)N(c2ccccc2)N(c2ccccc2)C1=O
Solution: inactive
